Target: UniProtKB Q86WV6
Assay: Agonist activity at STING in human THP-1 reporter cells incubated for 24 hrs by QUANTI-Luc assay
Assay type: cell-based
metric: EC50

| compound-structure-string | result |
| --- | --- |
| Nc1ncnc2c1ncn2[C@H]1C[C@@H]2OP(=O)(O)OC[C@H]3O[C@@H](n4cnc5c(N)ncnc54)C[C@@H]3OP(=O)(O)OC[C@H]2O1 | 41.3 µM |

----------
Target: Stimulator of interferon genes protein (Homo sapiens, UniProt Q86WV6)
Sequence (Q86WV6 whole entry): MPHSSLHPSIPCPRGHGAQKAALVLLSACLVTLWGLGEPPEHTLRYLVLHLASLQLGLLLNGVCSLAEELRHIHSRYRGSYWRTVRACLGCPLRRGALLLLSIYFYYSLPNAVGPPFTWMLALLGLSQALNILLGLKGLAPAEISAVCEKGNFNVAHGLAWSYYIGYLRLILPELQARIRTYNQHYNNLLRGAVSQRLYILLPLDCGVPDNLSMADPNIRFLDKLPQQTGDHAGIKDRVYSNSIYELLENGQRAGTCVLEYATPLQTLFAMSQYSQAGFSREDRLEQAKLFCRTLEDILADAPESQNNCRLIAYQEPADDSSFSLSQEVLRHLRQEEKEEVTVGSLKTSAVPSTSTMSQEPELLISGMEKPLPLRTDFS
Assay: Agonist activity at STING in PMA-treated human THP-1 reporter cells incubated for 30 mins in presence of digitonin by QUANTI-Luc assay
Type: cell-based
pEC50: −log10 of the molar value.
metric: pEC50

| compound-structure-string | metric | numeric-readout |
| --- | --- | --- |
| Nc1ncnc2c1ncn2[C@H]1C[C@@H]2OP(=O)(O)OC[C@H]3O[C@@H](n4cnc5c(N)ncnc54)C[C@@H]3OP(=O)(O)OC[C@H]2O1 | pEC50 | 6.50 |
